activity remaining reference
- Tested on: Aerobactin synthetase IucA (Klebsiella pneumoniae hvKP1)
- Protocol Details: Biochemical IucA enzyme inhibition primary screen of the Spectrum library (AID 1346200);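 also: 100% = wells without compound and 0% = wells lacking enzyme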
- Test Conditions: malachite green pyrophosphate, A620, at 8 µM, stronger effect = lower value
Give the value in % but do not write % after it.

Some compounds with recorded activity remaining:
O=C1CC(c2ccccc2)Oc2ccccc21 (stereo unspecified) : 125
CCCCC[C@H]1C(=O)O[C@H](C)[C@H](NC(=O)c2cccc(NC=O)c2O)C(=O)O[C@@H](C)[C@@H]1OC(=O)CC(C)C : 111
CCC(=O)O[C@H]1CCC2C3CCC4=CC(=O)CC[C@]4(C)C3CC[C@@]21C (stereo partly specified) : 108

Prompt line: Would you kindly share the measured activity remaining for CC1(C)C=Cc2c(cc3occ(-c4ccc5c(c4)OCO5)c(=O)c3c2O)O1 ?
Response line: 118
